// provenance: ChEMBL document CHEMBL4414553

- TEST SYSTEM: Glycogen synthase kinase-3 (Homo sapiens, UniProt P49840+P49841)
- ASSAY NOTES: Inhibition of GSK3 (unknown origin)
- Assay type: protein assay
TEST READOUT: IC50 (nM)

- O=C(NCCCn1ccnc1)c1ccnc2[nH]c(-c3ccc(C(F)(F)F)cc3)nc12: 13
- COc1ccc(-c2ccnc3[nH]c(-c4ccc(C(=O)N5CCCCC5)cc4)nc23)cc1: 31
- CCSc1ccncc1NC(=O)c1ccnc2[nH]c(-c3ccc(N4CCCC4)cc3)nc12: 3
- O=S(=O)(NCCCn1ccnc1)c1ccnc2[nH]c(-c3ccc(C(F)(F)F)cc3)nc12: 1600

====

- TEST SYSTEM: Sodium- and chloride-dependent glycine transporter 1 (Homo sapiens, UniProt P48067)
- Sequence (P48067 whole entry): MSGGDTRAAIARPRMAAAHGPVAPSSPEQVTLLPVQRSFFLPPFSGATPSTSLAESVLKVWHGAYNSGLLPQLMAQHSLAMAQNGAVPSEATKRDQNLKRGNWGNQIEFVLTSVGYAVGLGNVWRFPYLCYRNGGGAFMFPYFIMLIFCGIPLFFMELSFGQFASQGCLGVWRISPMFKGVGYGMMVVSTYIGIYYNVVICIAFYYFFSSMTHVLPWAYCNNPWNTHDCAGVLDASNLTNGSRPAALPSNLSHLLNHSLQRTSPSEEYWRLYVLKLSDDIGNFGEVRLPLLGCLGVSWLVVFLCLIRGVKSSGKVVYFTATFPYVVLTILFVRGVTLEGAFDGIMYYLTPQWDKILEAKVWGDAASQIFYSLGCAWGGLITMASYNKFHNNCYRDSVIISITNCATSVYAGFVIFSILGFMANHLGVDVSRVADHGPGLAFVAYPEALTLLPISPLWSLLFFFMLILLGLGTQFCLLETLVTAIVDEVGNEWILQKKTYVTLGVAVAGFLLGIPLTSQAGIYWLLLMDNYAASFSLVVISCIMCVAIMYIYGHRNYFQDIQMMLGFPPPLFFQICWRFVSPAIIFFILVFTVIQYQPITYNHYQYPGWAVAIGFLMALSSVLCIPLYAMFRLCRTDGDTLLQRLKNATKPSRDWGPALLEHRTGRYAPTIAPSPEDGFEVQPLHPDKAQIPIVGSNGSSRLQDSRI
TEST READOUT: IC50 (nM)

- Fc1ccc(C(CCCN2CCC(Cc3nc4cccnc4n3Cc3cccs3)CC2)c2ccc(F)cc2)cc1: 549

====

- TEST SYSTEM: Histamine H3 receptor (Cavia porcellus, UniProt Q9JI35)
- Sequence (Q9JI35 whole entry): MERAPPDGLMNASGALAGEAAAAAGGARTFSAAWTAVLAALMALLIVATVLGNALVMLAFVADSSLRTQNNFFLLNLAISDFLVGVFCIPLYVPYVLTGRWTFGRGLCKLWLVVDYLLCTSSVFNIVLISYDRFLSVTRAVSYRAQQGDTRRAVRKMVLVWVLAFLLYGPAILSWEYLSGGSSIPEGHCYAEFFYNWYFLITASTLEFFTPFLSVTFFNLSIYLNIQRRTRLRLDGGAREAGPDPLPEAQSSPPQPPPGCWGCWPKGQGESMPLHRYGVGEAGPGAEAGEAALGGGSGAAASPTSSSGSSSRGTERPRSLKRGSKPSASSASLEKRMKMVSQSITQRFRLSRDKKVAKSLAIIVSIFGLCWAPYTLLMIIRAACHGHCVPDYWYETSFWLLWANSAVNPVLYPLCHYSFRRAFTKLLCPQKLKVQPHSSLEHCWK
TEST READOUT: Ki (nM)

* Cn1nc(N2CCC(OC(=O)N3CCN(C4CCC4)CC3)CC2)ccc1=O | 12

====

- ASSAY NOTES: Lipophilicity, log D of the compound
- Assay type: physicochemical
- MEASUREMENT SETUP: octanol/water; read-out: logD
TEST READOUT: logD

• c1ccn2cncc2c1 = 0.17
• Cn1cnc2cnccc21 = 0.26
• c1cc2[nH]cnc2cn1 = 0.03
• Cn1cnc2cccnc21 = 0.63
• c1cnc2[nH]cnc2c1 = 0.41

====

- TEST SYSTEM: Orexin/Hypocretin receptor type 1 (Homo sapiens, UniProt O43613)
- Sequence (O43613 whole entry): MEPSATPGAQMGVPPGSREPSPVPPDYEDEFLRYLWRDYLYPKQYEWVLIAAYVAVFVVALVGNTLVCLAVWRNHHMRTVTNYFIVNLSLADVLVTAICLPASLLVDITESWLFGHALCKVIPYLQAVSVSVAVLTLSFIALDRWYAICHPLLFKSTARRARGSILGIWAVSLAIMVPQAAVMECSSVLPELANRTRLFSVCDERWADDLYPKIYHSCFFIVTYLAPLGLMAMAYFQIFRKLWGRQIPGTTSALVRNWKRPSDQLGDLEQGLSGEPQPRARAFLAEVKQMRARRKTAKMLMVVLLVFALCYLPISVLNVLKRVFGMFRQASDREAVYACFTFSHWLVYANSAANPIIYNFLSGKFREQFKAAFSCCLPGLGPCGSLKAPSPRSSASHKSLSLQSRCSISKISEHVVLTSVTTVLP
- ASSAY NOTES: Antagonist activity at human OX1R expressed in CHOK1 cells by Syto62 probe based fluorescence assay
pIC50: −log10 of the molar value.
TEST READOUT: pIC50

- O=C(c1nccc2[nH]cnc12)N1CCC(F)(F)C(Oc2ccc3ccccc3n2)C1 (stereo unspecified): 7.05
